Test system: TK-10 renal
Experiment: NCI-60 one-dose screen, 48 h (100 = growth as untreated, 0 = no growth, -100 = all killed)
Conditions: 10 µM
This is part of a sample that, as a whole, favours compounds with a hit. Of some 83,000 tested, about 20% had one in any assay.
# growth annotations
A number alone suffices; assume %.

Consider the reported growth for these compounds:
compound	measurement-unit	growth
CCCCCC(=O)c1ccc(OCCCN2CCN(C(=O)OCC)CC2)cc1	%	101
COc1cc(Cl)cc(-c2nn(-c3cccc(NC(=O)c4ccc(Cl)c(Cl)c4)c3)cc2-c2ccncc2)c1	%	104
Cc1ccc(C(=O)Nc2cccc(F)c2)cc1NC(=O)C1(c2ncnc3[nH]ccc23)CC1	%	132
CCCCOC(=O)Oc1ccc(C(=O)Oc2ccc(OCC)cc2)cc1	%	117
COc1ccc2c(c1)[n+]([O-])c(C#N)c(NC(=O)c1ccco1)[n+]2[O-]	%	112
CCOC(=O)N1C/C(=C/c2ccc(OC)cc2)C(=O)/C(=C/c2ccc(OC)cc2)C1	%	59.5
C/C(=N\Nc1nc2ccccc2s1)c1ccncn1	%	50.6
CCOC(=O)c1ccoc1	%	109
Nc1c(C(=O)Nc2cccc(Br)c2)sc2nc3c(cc12)C(O)CCC3 (stereo not drawn)	%	56.7
COc1ccc2c(c1)O/C(=C\c1ncc([N+](=O)[O-])n1C)C2=O	%	-27.3

Fill in: growth of NC1=NC(=O)C(c2ccccc2)(c2ccccc2)S1 is ___ 100

Fill in: growth of COc1cc(-c2nn3c(/C=C4/C(=O)Nc5ccccc54)c(-c4ccc(C)cc4)nc3s2)cc(OC)c1OC is ___ -18.7

Fill in: growth of COC(=O)C1(C)Cc2cc(OC(C)=O)c(OC(C)=O)cc2N1 (stereo not drawn) is ___ 87.9

Fill in: growth of Cc1cccc2c(NCCN(C)C)c3cccc(C(=O)NCCN(C)C)c3nc12 is ___ -15.9

Fill in: growth of S=C1SCC(c2ccccc2)S1 (stereo not drawn) is ___ 107

Fill in: growth of CN(C)CCNC(=O)c1cccn2c(=O)c3cc4ccccc4cc3nc12 is ___ -29

----------
System: MOLT-4 leukemia
Assay: NCI-60 one-dose screen, 48 h
Settings: 10 µM
About 83,000 compounds went through this panel and 20% of them were active in at least one assay; those are over-represented in the sample as a whole. Calls of active or inactive are those of the source. The calls were made as follows: active = growth percent below 10; inactive = the rest.
Form entry, call: pick from active, inactive

# lookup: test call for COc1ccc(-c2nc(-c3nc4ccc(Cl)cc4[nH]3)c3ccccn23)cc1 inactive

# lookup: test call for COc1cc(Nc2ccnc(NCCCNc3ccnc4cc(Cl)ccc34)n2)cc(OC)c1 active

# lookup: test call for O=C1N=NC2=C1c1c3ccccc3c(O)n1CC2 inactive

# lookup: test call for COc1ccc(OC)c2c1C(=O)CC2C (stereo not given) inactive

# lookup: test call for CC[C@H](C)C(=O)O[C@H]1CCC=C2C=C[C@H](C)C(CCC3C[C@@H](O)CC(=O)O3)[C@H]21 (stereo not given in full) inactive

----------
Tested on: HS 578T breast
Assay: NCI-60 one-dose screen, 48 h
Conditions: 10 µM
About 83,000 compounds went through this panel and 20% of them were active in at least one assay; those are over-represented in the sample as a whole. Calls of active or inactive are those of the source. How the source made its calls: active means growth percent below 10; inactive means the rest.
Form entry, call: pick from label 1 (active), label 0 (inactive)

Some solved entries appear below for comparison.
molecule	measurement-target	class-name
O=C(Nc1cccc(-n2cc(-c3ccncc3)c(-c3ccc(O)c(Cl)c3)n2)c1)c1cccc(C(F)(F)F)c1	HS 578T breast	label 0
COc1ccc2c(c1)N(CCO)C1=C(C(=O)OC1)C2c1cc(OC)c(OC)c(OC)c1 (stereo not given)	HS 578T breast	label 1

# lookup: test call for O=C(Nc1nc2ccc(F)cc2s1)c1cc(-c2ccc(F)cc2)n2nc(-c3ccccc3)cc2n1 label 0

# lookup: test call for Cc1cccc2c1O/C(=C\c1ccc([N+](=O)[O-])o1)C2=O label 1

# lookup: test call for COc1ccc2c(c1)O/C(=C\c1ccc([N+](=O)[O-])s1)C2=O label 0

----------
Tested on: SK-MEL-28 melanoma
Test: NCI-60 one-dose screen, 48 h (100 = growth as untreated, 0 = no growth, -100 = all killed)
Settings: 10 µM
Compounds without any hit were thinned out: in the full panel of roughly 83,000, 20% have a hit.
Assign Yes to entries whose growth meets or exceeds 70%; assign No to the rest.

Some solved entries appear below for comparison.
compound	class-name
N#Cc1ncc(-c2ccc(C(F)(F)F)cc2)c(NCc2cc(C(F)(F)F)cc(C(F)(F)F)c2)n1	No
CC(=O)O[C@]1(C)CC[C@H]2[C@H](CNCCc3ccc(Cl)cc3)C(=O)O[C@@H]2C2=C(C)C(=O)C[C@H]21	Yes
CN(C)CCN1C(=O)c2cccc3c(-c4ccc5ncn(C6CCCCC6)c5c4)ccc(c23)C1=O	No
O=C(Nc1cccc(Br)c1)c1cc(=O)[nH]c2ccccc12	Yes
Cn1c([N+](=O)[O-])cnc1/C=C1\Oc2ccccc2C1=O	No

growth >= 70% for Cc1cc(C)c2c(n1)sc1c(Nc3ccc(Cl)cc3)ncnc12 ? No

growth >= 70% for CN(C)CCOc1nc2ccccc2c2c1-c1ccc(Cl)cc1C2=O ? No

growth >= 70% for COc1ccc(/C(=C2\O[C@@H]([C@H]3COC(C)(C)O3)[C@H]3OC(C)(C)O[C@@H]23)c2cc(OC)c(OC)c(OC)c2)cc1O ? No

----------
# growth annotations
Tested on: OVCAR-3 ovarian
Assay: NCI-60 one-dose screen, 48 h (100 = growth as untreated, 0 = no growth, -100 = all killed)
Settings: 10 µM
Compounds without any hit were thinned out: in the full panel of roughly 83,000, 20% have a hit. Activity calls are given as the source filed them. The calls were made as follows: active = growth percent below 10; inactive = the rest.

Consider the reported growth for these molecules:
molecule	measurement-target	growth
COc1ccc2c(c1)-c1c(c3cc(OC)ccc3n(CCN(C)C)c1=O)C2=O	OVCAR-3 ovarian	6.8% (active)
N=c1c2c(-c3ccccc3)c(-c3ccccc3)n(Cc3ccccc3)c2ncn1CCCO	OVCAR-3 ovarian	8.78% (active)
CC(=O)OCc1cc(-c2nc3ccccc3[nH]c2=O)nn1-c1ccc(Cl)cc1	OVCAR-3 ovarian	116% (inactive)
COc1ccc(/C=C2/CN(C(=O)c3ccc(C)cc3)C/C(=C\c3ccc(OC)cc3)C2=O)cc1	OVCAR-3 ovarian	90.7% (inactive)

Under OVCAR-3 ovarian: growth value of Cc1cc(C)c(NC(=O)c2sc3nc4c(cc3c2N)C(=O)CCC4)c(C)c1 ? 13.2% (inactive)

Under OVCAR-3 ovarian: growth value of CC(C)(C)NC/C(=C\c1ccccc1)C(=O)c1ccccc1 ? -43.1% (active)

Under OVCAR-3 ovarian: growth value of CCN1CCC2(CC1)OC(c1ccccc1)C(c1ccccc1)O2 (stereo unspecified) ? 114% (inactive)

Under OVCAR-3 ovarian: growth value of COc1cc(-c2cc(C(=O)N3CCN(C(=O)c4ccccc4NCc4ccco4)CC3)nc3cc(-c4ccccc4)nn23)cc(OC)c1OC ? -37.8% (active)

Under OVCAR-3 ovarian: growth value of COc1ccc(-c2nn(-c3cccc(NC(=O)c4cccc(C(F)(F)F)c4)c3)cc2-c2ccncc2)cc1Cl ? 11.9% (inactive)

Under OVCAR-3 ovarian: growth value of CC(=O)c1nc2ccccc2n1CCNC(N)=O ? 82.7% (inactive)

Under OVCAR-3 ovarian: growth value of COc1ccc(-c2nc3ccccn3c2-c2nnc(-c3cc(OC)c(OC)c(OC)c3)o2)cc1 ? 40.4% (inactive)

Under OVCAR-3 ovarian: growth value of CC(C)(C)c1cc(Br)cc(C(C)(C)C)c1O ? 108% (inactive)

----------
System: SF-268 CNS
Experiment: NCI-60 one-dose screen, 48 h (100 = growth as untreated, 0 = no growth, -100 = all killed)
Conditions: 10 µM
Description: Cells are grown in 96 well plates and exposed to the test compound for 48 hours. Compounds are tested at a single concentration, which is 10^-5 M for most compounds. The reported endpoint is percent growth (GI% or GIPRCNT), where numbers from 0 - 100% represent growth inhibition, and numbers from -100% - 0 represent cell death. For example, a value of 40 represents 60% growth inhibition. A value of 0 means no net growth occurred over the course of the experiment. […]
Compounds without any hit were thinned out: in the full panel of roughly 83,000, 20% have a hit. Activity calls are given as the source filed them. The calls were made as follows: active = growth percent below 10; inactive = the rest.
reported-endpoint: growth

Consider the reported growth for these compounds:
compound	measurement-target	val
O=[N+]([O-])c1ccc(N/N=C/c2cccc3ccccc23)nc1	SF-268 CNS	121% (inactive)
C#Cc1ccc(-n2c(/C=C/c3cc(OC)cc(OC)c3)nc3ncccc3c2=O)cc1	SF-268 CNS	65.3% (inactive)
CC/C(=C(/c1ccc(OCCN(C)C)cc1)c1ccc(OC(=O)CCCCCCCCC(=O)c2c(C)[nH]c(/C=C3\N=C(c4ccc[nH]4)C=C3OC)c2C)cc1)c1ccccc1	SF-268 CNS	71.7% (inactive)
CCOC(=O)N1C/C(=C/c2ccc(Cl)cc2)C(=O)/C(=C/c2ccc(Cl)cc2)C1	SF-268 CNS	52.3% (inactive)
Cc1cc(Cc2cc(C)c(O)c(C)c2)cc(C)c1O	SF-268 CNS	64.1% (inactive)

Fill in: growth of Nc1c(C(=O)Nc2ccccc2)sc2nc3c(cc12)CCCC3 is ___ 54.7% (inactive)

Fill in: growth of CCN1CCN(c2nc3ccccc3c3c(=O)c4ccccc4sc23)CC1 is ___ 45.6% (inactive)

Fill in: growth of O=C(CNC(=O)OCc1ccccc1)NCC(=O)Oc1ccc([N+](=O)[O-])cc1 is ___ 108% (inactive)

Fill in: growth of O=C1/C(=C/c2ccc(Cl)cc2)SC(=Nc2ccc(Cl)cc2)N1Cc1nc2ccccc2[nH]1 is ___ 74.4% (inactive)

Fill in: growth of O=C(Nc1ccc(CN2CCc3nc4cc(O)c(O)cc4cc32)cc1)c1ccc(Cl)c(Cl)c1 is ___ 96.6% (inactive)

Fill in: growth of O=[N+]([O-])c1cccc(-c2ncc(-c3ccc(Cl)cc3Cl)[nH]2)c1 is ___ 54.4% (inactive)

Fill in: growth of CC1(C)N=C(N)N=C(N)N1c1ccc(CCc2ccccc2)c(Cl)c1 is ___ 21.1% (inactive)

Fill in: growth of Cc1cn(C2CCCCO2)c(=O)nc1NO (configuration not stated) is ___ 103% (inactive)

Fill in: growth of O=C1Nc2ccccc2C1=NC1CCCCC1 is ___ 96% (inactive)

Fill in: growth of COc1ccc([N+](=O)[O-])c(C(=O)O)c1 is ___ 102% (inactive)

Values from PubChem BioAssay (NCI)
